Measured values drawn from the supplement of paper PMC9170038 for this set.

Tested on: MS2 coat protein
Experiment: apparent KD of MS2 coat protein; designed switch direction (-1 OFF switch, 1 ON switch): -1; higher = weaker reporter binding
Conditions: input ligand: FMN 200 uM
Kind request: treat 90 nM as inclusive, so apparent KD of MS2 coat protein at 90 nM or higher is true, anything lower is false.

entry_sequence	assigned_category
CUGUACUGAGGAUAUACAUGAGGAUCACCCAUGUGUCCUGGCUAGGAAACUAGCAAAGGUAGAAGGCAGUACAG [Mat - Exclusion 3 - Eli Mod - D54] (Eterna round: R97, puzzle: Exclusion 3)	true
GUGCCGCGAGGAUAUACAGACGGGUCCAGUACGUGUCUUGGACUUGAGGAUCACCCAAGUAGAAGGCGUCUCAG [salish99_ex2_r4_612] (Eterna round: R97, puzzle: Exclusion 2)	false
AGUUGUUCAGGAUAUGAUGUAUGUUACAUGAGGAUCACCCAUGUAGGUCCUGGAUAUGUAUCAGAAGGGAAUAUCU [JR_Ex5_Sub059] (Eterna round: R97, puzzle: Exclusion 5)	false

In the following, a different sequence is considered.
Please check the record UAAGAUUACCGAGGAUAUGGUAAUUUUUGUUAACCAGAAGGCGGACUCAACAUGAGGAUCACCCAUGUAUAAAGGGUAUUAGUU [JR_ExcNG1_Sub040] (Eterna round: R96, puzzle: Exclusion NG 1) and state if its apparent KD of MS2 coat protein is at or above 90 nM. true

---

Test system: K4 kissing-loop RNA reporter
Assay: apparent KD of K4 kissing-loop reporter; higher = weaker reporter binding
Conditions: Eterna round: R107; input ligand: arginine 13.2 mM
Kind request: treat 100 nM as inclusive, so apparent KD of K4 kissing-loop reporter at 100 nM or higher is Yes, anything lower is No.

Worked cases, answers included:
entry_sequence	assigned_category
AACUCUCAGGCACCUGAGUGAUGUUCAGGCCGAGGACCGGUACGGCCGCCACUCGGGCCUGAGAGAGGUUAUCAAAGAUAGCCAA [Omei KL Tryp A SS A v2]	Yes
UCUGCUGUAUAUGAUACCAGCAGUGAGAGACCAGAAGUAUAGUGAUGUUAUAUGAGAGAAUGCCCUUGGCAGCGUGUGCGGGUGG [SSTheophylB.Z]	No
AAGGCCGCGCGGUGAUGUUUCAUCGCCGCCCGAGGACCGGUACGGCCGCCACUCGGAUAUAUCGCAGUGAUGUUGCUCUAUAUCA [Exclusion - Tryptophan A]	Yes
UAACUUGCAGUGAUGUUGCAAGAACUGGAUACCAGCAUGGAAACAUGCCCUUGGCAGCCAGAAGCUGGCUGCUUGUAAUGUCAGC [Design6]	Yes
GAUGAUCGCGCGGCCGCCACUGGUCAGUGAUGUUGACAUUAAUGCGCCGAGUAGUAACGGCGCAGCAGGACCGGGCGCGAUGUAG [#12 K4 Tryptophan B Same State]	Yes

Please check the record AACUGUUGGGAAGGAUAUUAUGGUGGCUAAAUCCAGUGAUGUUGGAAAUCGGUACUCGCCCACCUUUAAGAAGGUCCGUGAAAGA [theeternabot_sameState_KL_FMN_B_6] and state if its apparent KD of K4 kissing-loop reporter is at or above 100 nM. Yes

Please check the record GUAGAUAGGCUACAUCUCUAGUCUAUAGACUAGGAUAUCAGGAAACUGAGAAGGAGUCUCAUUGGAGUGAUGUUCCAAGAAUAAU [KL-SSFMN-A15] and state if its apparent KD of K4 kissing-loop reporter is at or above 100 nM. Yes

Please check the record CAUACGCAUGGAGGAUAUGAGAUUUCUCAUAUUAUUUAAUAUUCUCAGUGAUGUUGAGAAAUAAACUCAGAAGGCCAUGUGUAUG [Ex FMN B 3] and state if its apparent KD of K4 kissing-loop reporter is at or above 100 nM. Yes

Please check the record CGAGAAAGAGCGACUGGCGAUCUGUCUGAAGGAGCGGGUGCUAGCCCAGGUAGGUCGCAGACCUUGACGCCAGUGAUGUUGGCGG [Ritiatso] and state if its apparent KD of K4 kissing-loop reporter is at or above 100 nM. Yes

Please check the record UGGAUGUAGUGAUGUUAUAUAGAGAGUGAUACCAGUUUAGAGAAGAACCCUUGGCAGCAUAGAAGAGUAUCAUUGGAGAAGAAUG [ExTheophyl.Ar] and state if its apparent KD of K4 kissing-loop reporter is at or above 100 nM. Yes

Please check the record AUUUUAUUAACUGAUACCAGACUUAAUGAUUUGUAAAUUACUAGUGAUGUUAGUGAUUCUGUCCCUUGGCAGCAGUAUUUAUUUA [JR_ExcTheophyB_Sub013] and state if its apparent KD of K4 kissing-loop reporter is at or above 100 nM. No

---

Listed here are sequences together with their documented apparent KD of MS2 coat protein.
Test system: MS2 coat protein
Assay: apparent KD of MS2 coat protein; higher = weaker reporter binding
Conditions: Eterna round: R107; input ligand: arginine 13.2 mM
Put down the number, then write its unit next to it.

Examples from the recorded data:
entry_sequence	apparent KD of MS2 coat protein
AAUAAUAGGUGAUCUUGAGUCGUACCGUAACGAGGACCGGUACGGCCGCCACUCGAACAUGAGGAUCACCCAUGUAUGUAUGAUA [whbob_SS_trypto A_f6]	48.6 nM
UCGUUUGAGGCGGCCGCCACUGGUCUCAUGGUCAACAUGAGGAUCACCCAUGUAUCUUUGCCAAGCAGGACCGGGCCUCGAGCGA [#20 Exclusion Tryptophan B]	28.1 nM

Note to self: apparent KD of MS2 coat protein of AAGCUGACAAGAAGGUGUUCCUAAGCUGAUACCAGCCUGGAAACAGGCCCUUGGCAGCAGCACAUGAGGAUCACCCAUGUAAUAA [(T)'-(M)'-(T1)-(T2)-(M1)-(M2)_Design2(Mismatches)] with MS2 coat protein was 101 nM

Note to self: apparent KD of MS2 coat protein of UGUCGUAGACAUGAGGAUCACCCAUGUCCACGAGGACCGGUACGGCCGCCACUCGGGAUAUAAACCGUUACGGGUGGGUGGUGUU [Maarlainin] with MS2 coat protein was 16 nM

Note to self: apparent KD of MS2 coat protein of AAUCAUGGAAACAUGACAUGAGGGUUGCUCCGAGGACCGGUACGGCCGCCACUCGCGAGGAGGCGGACAUGAGGAUCACCCAUGU [#05 Tryptophan A Same State] with MS2 coat protein was 40.3 nM

Note to self: apparent KD of MS2 coat protein of UUAAUGAUAUAUCAUAUGAUAUAUCCAGAAGGAGCGUCAUAAAUGGCAGGUAGGUCGCUGAAGGCAACAUGAGGAUCACCCAUGU [#16 Same State - Arginine A] with MS2 coat protein was 20.1 nM

Note to self: apparent KD of MS2 coat protein of ACAGGAAACGGAAGGAGCGGAAUUGCAACAUGAGGAUCACCCAUGUUGAUCGUGAGUUGCUUCCAGGUAGGUCGCCGUUACCUAA [Erorve] with MS2 coat protein was 30.1 nM

Note to self: apparent KD of MS2 coat protein of GCAGUGGGUUAUAAGUAAUAGAAUUCUGAAGGAGCGUGAUGAAACACAGGUAGGUCGCAGGAACAUGAGGAUCACCCAUGUACGG [Same State Arginine A GF20] with MS2 coat protein was 61.4 nM

Note to self: apparent KD of MS2 coat protein of ACACGAAGCUGAAGGAGCGUGGUACAAGUUUUUACAUGAGGAUCACCCAUGUUUCGUCAAUCACAGGUAGGUCGCAGAUGCGUGA [#08 Same State - Arginine B] with MS2 coat protein was 32.1 nM

Note to self: apparent KD of MS2 coat protein of AGUUAAAUAUGUUAAUAACUAUUUACUGAAGGAGCGUGUUUUUACACAGGUAGGUCGCAGUGACAUGAGGAUCACCCAUGUAGUA [JR_SSArginiA_Sub012] with MS2 coat protein was 31.3 nM

Note to self: apparent KD of MS2 coat protein of AACGCGGUGAUGGUAGCCGGACGCUAGGUACGAGGACCGGUACGGCCGCCACUCGGAGUCCUACGACAUGAGGAUCACCCAUGUA [Same State Trp A GF15] with MS2 coat protein was 53.9 nM

---

Test system: K4 kissing-loop RNA reporter;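 also: bound reporter read as fluorescence of individual clusters on recovered sequencing chips by microscopy, with normalized cluster intensities fitted with a binding model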
Test: apparent KD of K4 kissing-loop reporter; higher = weaker reporter binding
Details: Eterna round: R107; input ligand: tryptophan 2.4 mM
endpoint: apparent KD of K4 kissing-loop reporter (nM)
Give the quantity in nM, number only.

Examples from the recorded data:
entry_sequence	apparent KD of K4 kissing-loop reporter (nM)
UUUGUAUAGGGAAGGAGCGUGAAUGAUAAUGAAUAUAGUGAUGUUAUAUAUAAGAAAGAAUCACAGGUAGGUCGCCCGGAUGAGG [SSArgB.K]	412
AGACCUCAGUGAUGUUGAGGUAACACUGAUACCAGCGACUUGAUUCGCCCUUGGCAGCAGUCCACCGAGGUAUCUGAUCAGGUCA [#25 K4 Theophylline A Exclusion]	140

Next sequence, apparent KD of K4 kissing-loop reporter to be filled in.
Measured apparent KD of K4 kissing-loop reporter of UUAGCCUAGCCAUAGUGAUGUUGUGGAAUACGAGGACCGGUACGGCCGCCACUCGCUCGACGGUGAUGACAUCAACGACCUUUAU [theeternabot_sameState_KL_Trp_A_38] : 285
